Target: D(1A) dopamine receptor (Homo sapiens)
Assay: Antagonist of Human D 1 Dopamine Receptor: qHTS; also: % is scaled to controls: 0 for no effect and ±100 for the full control effect
Details: HEK293 TREx D1 cells, calcium flux, dopamine EC80; at 10 µM
Screen size: about 360,000 compounds; about 11,000 (3.1%) were called active. Rule as the data show it: active = activity change below about -30%; inactive = the rest. The list comes from a sample in which actives are over-represented; it also holds close analogues and randomly drawn compounds.
Outcome codes: yes (1) (active), no (0) (inactive)

- CCOC(=O)[C@@H]1[C@H]2COc3cc(OC)ccc3[C@@H]2N2C(=O)N(c3cccc(C)c3)C(=O)[C@@]12C: no (0)
- COc1ccc(S(=O)(=O)n2nc(C)c(S(=O)(=O)N3CCCCCC3)c2C)cc1: no (0)
- CCOC(=O)[C@H]1[C@H]2COc3cc(OC)ccc3[C@@H]2N2C(=O)N(c3ccc(Br)cc3)C(=O)[C@@]12C: yes (1)
- COc1ccc(Nc2ncnc3sc(C)cc23)cc1: no (0)
- CCOc1ccc(Nc2ncnc3scc(-c4ccc(OC)cc4)c23)cc1: no (0)
- COC(=O)c1ccc(Nc2ncnc3sccc23)cc1: yes (1)
- COc1ccccc1-c1nnc(C2CCN(C(=O)c3ccc(Cl)cc3)CC2)o1: no (0)
- Cc1cccc(NC(=O)c2nnn(CC(=O)Nc3ccc(C(C)C)cc3)c2N)c1C: no (0)
- O=C(NCCC1=CCCCC1)c1ccc2c(c1)N(Cc1ccccc1F)C(=O)c1ccccc1S2(=O)=O: no (0)
- Cc1cccc(Cn2c(=O)n(CCC(=O)NCCc3ccc(Cl)cc3)c(=O)c3sccc32)c1: no (0)
